experiment: Cytotoxicity against human MRC5 cells assessed as cell viability at 32 ug/ml incubated for 72 hrs by MTT assay; assay type: cell-based; settings: read-out: Activity
The following molecules are shown together with reported viability at 72 h, 32 ug/ml values.

C[Si]1(C)OB(O)c2ccc(B(O)O)cc21 : 102%
C[Si]1(C)OB(O)c2ccc(F)c(F)c21 : 74%

Here is another molecule to look at.
Return value of viability at 72 h, 32 ug/ml for input `C[Si]1(C)OB(O)c2cc3c(c(F)c21)COB3O` , no commentary.
54.3%

###

test system: Escherichia coli; assay: Inhibition of beta lactamase KPC-3 in Escherichia coli 82 TR assessed as potentiation of meropenem-induced antibacterial activity by measuring meropenem MIC at 16 mg/L incubated for 18 hrs by broth dilution method (reference value: 2 mg/L)
QUANTITY KIND: MIC (µg/mL)
Just the number please, in µg/mL, no unit attached.

Sample answers from the record:
OB(O)c1ccccc1 : 0.25
C[Si]1(C)OB(O)c2c(F)c(F)c(F)c(F)c21 : 2
C[Si]1(C)OB(O)c2ccc(F)c(F)c21 : 2
C[Si]1(C)OB(O)c2cc3c(c(F)c21)COB3O : 1
C[Si]1(C)OB(O)c2ccc(B(O)O)cc21 : 0.25

Continue with the next compound.
Tell me MIC of `C[Si]1(C)OB(O)c2c(F)c3c(c(F)c21)B(O)OC3` when tested on Escherichia coli.
2

###

assay: Dissociation constant, pKa1 of compound in 0.1 M NaOH by potentiometric analysis; format: physicochemical
Catalogue of pKa values
Lab note: record just the number, no unit beside it.

Consider the worked cases shown below.
C[Si]1(C)OB(O)c2cccc(F)c21 : 7.2
C[Si]1(C)OB(O)c2cccc(Cl)c21 : 6.5
C[Si]1(C)OB(O)c2cc(F)c(F)cc21 : 6.8
C[Si]1(C)OB(O)c2c(F)c(F)c(F)c(F)c21 : 4.7
C[Si]1(C)OB(O)c2c(C=O)cc(F)c(F)c21 : 5.2

As a next step, examine the compound that follows.
Name the recorded pKa of the item `C[Si]1(C)OB(O)c2ccc(B(O)O)cc21` in your answer.
7.7

###

tested on: Escherichia coli; test: Inhibition of beta lactamase KPC-3 in Escherichia coli 82 TR assessed as potentiation of ceftazidime-induced antibacterial activity by measuring ceftazidime MIC at 16 mg/L incubated for 18 hrs by broth dilution method (reference value: […] mg/L)
QUANTITY KIND: MIC (mg/L)
Dear colleague, please return just the value in mg/L, with no unit written.

Examples with answers:
C[Si]1(C)OB(O)c2ccc(B(O)O)cc21 : 32
C[Si]1(C)OB(O)c2c(F)c3c(c(F)c21)B(O)OC3 : 32
C[Si]1(C)OB(O)c2cc3c(c(F)c21)COB3O : 32

Kindly indicate its recorded MIC. Item: `C[Si]1(C)OB(O)c2c(F)c(F)c(F)c(F)c21`
32

Please look at this compound and report its MIC: `OB(O)c1ccccc1`
8

Give the value of MIC reported for the following: `C[Si]1(C)OB(O)c2ccc(F)c(F)c21`
32

###

Reported inhibition zone (IZ) values follow for various compounds
tested on: Pseudomonas aeruginosa; test: Inhibition of beta lactamase AmpC in Pseudomonas aeruginosa MUW 700 assessed as potentiation of ceftazidime-induced antibacterial activity by measuring diameter of zone inhibition at 0.3 mg incubated for 18 hrs in presence of 30 ug ceftazidime by CLSI disc diffusion method (Rvb=11 mm)
Please give a number only; it is taken to be in mm.

The following compounds have reported results that may help.
C[Si]1(C)OB(O)c2c(F)c(F)c(F)c(F)c21 : 11
C[Si]1(C)OB(O)c2c(F)c3c(c(F)c21)B(O)OC3 : 11
C[Si]1(C)OB(O)c2ccc(F)c(F)c21 : 14
C[Si]1(C)OB(O)c2cc3c(c(F)c21)COB3O : 16

System Pseudomonas aeruginosa. Read-out inhibition zone (IZ). Item `OB(O)c1ccccc1` . Report value.
22

State measured inhibition zone (IZ) of the compound `C[Si]1(C)OB(O)c2ccc(B(O)O)cc21` with Pseudomonas aeruginosa.
18

###

test: Dissociation constant, pKa2 of compound in 0.1 M NaOH by potentiometric analysis; assay type: physicochemical
Reported pKa values are given for each entry in this list.
In your answer, state the number alone without any accompanying words.

Recorded pKa, per entry:
C[Si]1(C)OB(O)c2c(F)c3c(c(F)c21)B(O)OC3 : 7.8
C[Si]1(C)OB(O)c2cc(B(O)O)cc(F)c21 : 10.2
C[Si]1(C)OB(O)c2cc3c(c(F)c21)[Si](C)(C)OB3O : 8.6

Next up:
Fill in pKa for record `C[Si]1(C)OB(O)c2cc3c(c(F)c21)COB3O`
8.6

###

Overview of recorded MIC for various compounds
test system: Klebsiella pneumoniae; assay: Inhibition of beta lactamase SHV-12 in Klebsiella pneumoniae ATCC 700603 assessed as potentiation of ceftazidime-induced antibacterial activity by measuring ceftazidime MIC at 16 mg/L incubated for 18 hrs by broth dilution method (reference value: […] mg/L)

C[Si]1(C)OB(O)c2c(F)c3c(c(F)c21)B(O)OC3 : 64 µg/mL
C[Si]1(C)OB(O)c2ccc(F)c(F)c21 : 32 µg/mL
C[Si]1(C)OB(O)c2cc3c(c(F)c21)COB3O : 32 µg/mL
C[Si]1(C)OB(O)c2ccc(B(O)O)cc21 : 64 µg/mL
OB(O)c1ccccc1 : 64 µg/mL

Kindly consider the entry below.
Supply reported MIC belonging to this compound: `C[Si]1(C)OB(O)c2c(F)c(F)c(F)c(F)c21`
64 µg/mL

###

tested on: Klebsiella pneumoniae; assay: Antibacterial activity against Klebsiella pneumoniae ATCC 13883 assessed as fold reduction of MIC in presence of efflux pump inhibitor PAbetaN incubated for 18 hrs by broth microdilution method; format: functional
QUANTITY KIND: fold change (FC)
Just the number, please, no unit after it.

C[Si]1(C)OB(O)c2ccc(C=O)c(F)c21 : 4

For the compound `C[Si]1(C)OB(O)c2cc(F)c(F)cc21` , give its reported fold change (FC).
4

Hello, please tell me recorded fold change (FC) for this one: `C[Si]1(C)OB(O)c2cc(F)c(C=O)c(F)c21`
4

Give the value of fold change (FC) reported for the following: `C[Si]1(C)OB(O)c2c(C=O)cc(F)c(F)c21`
32

Return the recorded fold change (FC) value; entry: `C[Si]1(C)OB(O)c2ccc(C(F)(F)F)cc21`
16

Given the compound `C[Si]1(C)OB(O)c2c(F)c(F)c(F)c(F)c21` , write its reported fold change (FC).
16

For `C[Si]1(C)OB(O)c2ccc(Cl)cc21` , write its fold change (FC).
32

Look up and state reported fold change (FC) for `C[Si]1(C)OB(O)c2cc3c(c(F)c21)COB3O`
32

# return recorded fold change (FC) for entry `C[Si]1(C)OB(O)c2ccc(B(O)O)cc21`
4

Please report the measured fold change (FC) for `C[Si]1(C)OB(O)c2cc(F)c(CO)c(F)c21`
2

State its fold change (FC): `C[Si]1(C)OB(O)c2ccccc21`
2

# return recorded fold change (FC) for entry `C[Si]1(C)OB(O)c2c(F)c3c(c(F)c21)B(O)OC3`
16

###

tested on: Klebsiella pneumoniae; experiment: Inhibition of beta lactamase KPC-2 in Klebsiella pneumoniae 75 assessed as potentiation of ceftazidime-induced antibacterial activity by measuring ceftazidime MIC at 16 mg/L incubated for 18 hrs by broth dilution method (reference value: […] mg/L)
QUANTITY KIND: MIC (µg/mL)
Write the value in µg/mL as a bare number.

# count of solved cases: 3
OB(O)c1ccccc1 : 16
C[Si]1(C)OB(O)c2ccc(B(O)O)cc21 : 64
C[Si]1(C)OB(O)c2c(F)c3c(c(F)c21)B(O)OC3 : 64

Attention now shifts to the item below.
# lookup: Klebsiella pneumoniae MIC, key = `C[Si]1(C)OB(O)c2c(F)c(F)c(F)c(F)c21`
64

###

system: Escherichia coli; assay: Inhibition of beta lactamase CMY-2 in Escherichia coli 77 assessed as potentiation of ceftazidime-induced antibacterial activity by measuring ceftazidime MIC at 16 mg/L incubated for 18 hrs by broth dilution method (reference value: […] mg/L)
Each entry below lists one item and its recorded MIC value.
The answer is to be given in µg/mL; state only the numeric part.

Consider the worked cases shown below.
C[Si]1(C)OB(O)c2c(F)c(F)c(F)c(F)c21 : 16
C[Si]1(C)OB(O)c2c(F)c3c(c(F)c21)B(O)OC3 : 32
C[Si]1(C)OB(O)c2ccc(F)c(F)c21 : 16
C[Si]1(C)OB(O)c2ccc(B(O)O)cc21 : 8
C[Si]1(C)OB(O)c2cc3c(c(F)c21)COB3O : 16

Shift focus to the following entry.
State recorded MIC with Escherichia coli, entry `OB(O)c1ccccc1` , no comment.
8
